# System: A375
# PROCEDURE_TEXT: Cytotoxicity assay (MTS, 72 hours)
# Assay type: cell-based
# APPLIED_CONDITIONS: Table 3, Melanoma
VALUE_KIND: IC50 (nM)
Give the value in nM but do not write nM after it.

Q) Name the recorded IC50 of the item C[C@H](NC(=O)/C(C#N)=C/c1cccc(Br)n1)c1ccccc1 [WP1066, reference compound] in your answer.
A) 1500

* * *

# System: HH
# PROCEDURE_TEXT: Cytotoxicity assay (MTS, 72 hours)
# Type: cell-based
# APPLIED_CONDITIONS: Homo sapiens, HH, Table 3, CTCL
VALUE_KIND: IC50 (µM)
Give the value in µM but do not write µM after it.

Q) Name the recorded IC50 of the item CCC(CC)(NC(=O)/C(C#N)=C/c1cccc(Cl)n1)c1ccc(OCCOCCN2CCN(C)CC2)cc1 [WP1732] in your answer.
A) 3.2

Numbers sourced from patent US10703721B2.
